# credit: ChEMBL document CHEMBL3132765

Tested on: Rattus norvegicus
Assay: Toxicity in Wistar rat infected with methicillin-susceptible Staphylococcus aureus Smith diffuse assessed as vomiting administered as solution by soaking of graft after 7 days
Type: organism-based
Settings: in vivo, other, 168 h
REPORTED METRIC: Activity

Observe how each entry below is paired with its result.
SUBSTANCE | MEASUREMENT TARGET | Activity
H-YSPWTNA-NH2 | Rattus norvegicus | Non-toxic
H-YAPWTNF-NH2 | Rattus norvegicus | Non-toxic
H-YSAWTNF-NH2 | Rattus norvegicus | Non-toxic
H-ASPWTNF-NH2 | Rattus norvegicus | Non-toxic

Look up Activity for the entries below, preserving their order.
1. H-YSPWTAF-NH2
2. H-YSPATNF-NH2
3. H-YSPWANF-NH2

# output
1: Non-toxic; 2: Non-toxic; 3: Non-toxic

---

Tested on: Rattus norvegicus
Assay: Toxicity in Wistar rat infected with methicillin-susceptible Staphylococcus aureus Smith diffuse assessed as diarrhea administered as solution by soaking of graft after 7 days
Type: organism-based
Details: in vivo, other, 168 h
REPORTED METRIC: Activity

Observe how each entry below is paired with its result.
SUBSTANCE | REPORTED METRIC | READOUT VALUE
H-YSPWTAF-NH2 | Activity | Non-toxic
H-YAPWTNF-NH2 | Activity | Non-toxic
H-ASPWTNF-NH2 | Activity | Non-toxic
H-YSPWTNA-NH2 | Activity | Non-toxic
H-YSPWANF-NH2 | Activity | Non-toxic

Look up Activity for the entries below, preserving their order.
1. H-YSPATNF-NH2
2. H-YSAWTNF-NH2

# output
1: Non-toxic; 2: Non-toxic
